Entry source: PubChem BioAssay (NCI)

Test system: DU-145 prostate
Assay Info: NCI tumour cell line growth inhibition, 48 h
# TGI listing for each entry below
The answer is to be given in µM; state only the numeric part.

What TGI value was documented for this molecule, CC1OC(O[C@@H]2C=C3CC[C@@H]4[C@H](CC[C@]5(C)[C@@H](c6ccc(=O)oc6)CC[C@]45O)[C@@]3(C)CC2)C(O)C(OC2OC(CO)C(O)C(O)C2O)C1O (some centres undefined) ? 0.0111

What TGI value was documented for this molecule, `O=C1c2cccnc2-c2nccc3c2c1nc1ccccc13` ? 0.962

What TGI value was documented for this molecule, `COC(=O)c1cc2cc(/C=C3/SC(=S)N(N(C(C)=O)C(C)=O)C3=O)oc2n1Cc1ccccc1` ? 73.4

What TGI value was documented for this molecule, `O=C1/C(=C/c2ccc([N+](=O)[O-])o2)Oc2ccc(Cl)cc21` ? 4.88

What TGI value was documented for this molecule, `COc1cc2c[n+](C)c3c4cc(OC)c(OCc5ccccc5)cc4c(OCc4ccccc4)cc3c2cc1OC` ? 45.7

====

System: SF-539 CNS
Assay Info: NCI tumour cell line growth inhibition, 48 h
# GI50 listing for each entry below

The cases that follow already have their GI50 on record.
1. C(=N\Nc1ccc2ccccc2n1)/c1ccccn1    362 nM
2. O=C1Cc2cc(CCN3CCNCC3)c(Cl)cc2N1    > 100000 nM

What GI50 value was documented for this compound, `CCS(=O)(=O)c1ccc(OC)c(Nc2ncc(-c3cccc(F)c3)o2)c1` ? > 25000 nM

What GI50 value was documented for this compound, N#CC1=C(N)OC2=C(CCOc3c2ccc2ccccc32)C1c1ccc(Br)cc1 (stereo unspecified) ? > 100000 nM

What GI50 value was documented for this compound, `Fc1ccc(Nc2nc(Nc3ccc(-c4nc5ccccc5[nH]4)cc3)c3cn[nH]c3n2)cc1` ? 1770 nM

What GI50 value was documented for this compound, COc1ccc2nc3ccccc3c(NCCNCC(C)O)c2c1 (stereo unspecified) ? 435 nM

What GI50 value was documented for this compound, `Cc1cc(N(CCNc2ccnc3cc(Cl)ccc23)Cc2ccc3c(c2)OCO3)nc(N2CCCC2)n1` ? 1600 nM

What GI50 value was documented for this compound, `N#Cc1c(N)nc(N2CCOCC2)c(C#N)c1-c1c(Cl)cccc1Cl` ? 12200 nM

What GI50 value was documented for this compound, `CC(=O)c1c(C)c2cnc(Nc3ccc(N4CCNCC4)cn3)nc2n(C2CCCC2)c1=O` ? 14100 nM

What GI50 value was documented for this compound, `C=C(C)C(=O)Nc1ccc(-c2c(-c3ccc(Oc4nccc(C)n4)c(F)c3)c3c(N)ncnc3n2C)cc1` ? 1880 nM

What GI50 value was documented for this compound, COc1cc(C2NC(=O)C(C#N)=C(Nc3cccc(C)c3)S2)ccc1O (stereo unspecified) ? > 100000 nM

====

System: OVCAR-5 ovarian
Assay Info: NCI tumour cell line growth inhibition, 48 h
# GI50 listing for each entry below

The cases that follow already have their GI50 on record.
1) Clc1ccc(-c2nc(NCc3ccco3)c3ccccc3n2)c(Cl)c1    40.1 µM
2) COC(=O)c1cc2cc(/C=C3/SC(=S)N(N(C(C)=O)C(C)=O)C3=O)oc2n1Cc1ccccc1    19 µM

What GI50 value was documented for this molecule, `Cc1c(C(N)=O)sc2nc(C)n(/N=c3\scc(-c4ccccc4)n3Cc3ccccc3)c(=O)c12` ? 4.33 µM

What GI50 value was documented for this molecule, `O=C1NC(=NCCc2ccc(Br)cc2)S/C1=C\c1ccc2ncccc2c1` ? > 25 µM

What GI50 value was documented for this molecule, `COc1ccc(-c2c(-c3ccc(C#N)c(F)c3)nc(N3CCC(N)CC3)n(C)c2=O)cc1F` ? 14.4 µM

What GI50 value was documented for this molecule, `CC1=C[C@@H]2c3c(c(O)c(O)c4oc5cc(O)cc(O)c5c(=O)c34)[C@@H](c3cc(O)c(O)c4oc5cc(O)cc(O)c5c(=O)c34)[C@@H]2C(C)(C)C1` ? 7.83 µM

====

System: NCI-H460 lung
# output must be one of label 1 (active), label 0 (inactive)

1. O=C(Oc1c(Cl)cc(Cl)cc1Cl)c1ccccc1Nc1ccnc(C(F)(F)F)c1    label 0

Lab log entry: `C[C@]12CCC(=O)C[C@@H]1CC[C@@H]1[C@@H]2CC[C@]2(C)[C@@H](OC(=O)N(CCCl)N=O)CC[C@@H]12` — outcome as called in the assay? label 1

Lab log entry: `COC(=O)c1cc2cc(/C=C3/SC(=S)N(N(C(C)=O)C(C)=O)C3=O)oc2n1Cc1ccccc1` — outcome as called in the assay? label 0

Lab log entry: `Cn1c(I)c(C#C[Si](C)(C)C)c(=O)[nH]c1=O` — outcome as called in the assay? label 0

Lab log entry: `O=C1/C(=C/c2ccc(C(F)(F)F)cc2)COc2ccc(O)c(O)c21` — outcome as called in the assay? label 0

Lab log entry: CC1=C(C(=O)Nc2ccc(Cl)c(Cl)c2)C(c2cccc(Cl)c2)NC(=S)N1 (stereo not given) — outcome as called in the assay? label 0

Lab log entry: CCN1C(=O)N(CC)C2C1N=C(SC)N2/N=C/C=C/c1ccccc1OC (stereo not given) — outcome as called in the assay? label 1

Lab log entry: `COc1ccc(-c2[nH]ncc2Nc2cc(OC)c(OC)c(OC)c2)cc1` — outcome as called in the assay? label 0

Lab log entry: `COc1cc(-c2ccc[nH]2)[nH]c1/C=C1\N=C(C)C(CC(=O)OCC(C)(C)C)=C1C` — outcome as called in the assay? label 1

Lab log entry: `COc1ccc2c(c1)/C(=N/OC(C)=O)c1c-2c(OC)nc2ccccc12` — outcome as called in the assay? label 0

====

Test system: HT29 colon
Assay Info: NCI tumour cell line growth inhibition, 48 h
Measurement Type: TGI

The cases that follow already have their TGI on record.
1) C(=N\NC1=NCCN1)/c1ccc2ccccc2c1    30.4 µM
2) C(=C/c1nnnn1-c1ccccc1)/Nc1ccccc1    > 100 µM
3) O=C1/C(=C/c2ccc([N+](=O)[O-])o2)Oc2ccc(Cl)cc21    3.98 µM
4) COc1ccc(/C=C/c2ccnc3ccccc23)cc1OC    27.4 µM
5) O=C1[C@@H]2C(c3ccccc3[N+](=O)[O-])=NO[C@@H]2C(=O)N1c1ccc(Cc2ccc(N3C(=O)[C@H]4C(c5ccccc5[N+](=O)[O-])=NO[C@H]4C3=O)cc2)cc1    > 100 µM
6) C=CCOC(=O)Cn1ccc(=O)[nH]c1=O    > 100 µM

What TGI value was documented for this compound, `CCOS(=O)(=O)c1ccc(-c2c3nc(c(-c4ccc(S(=O)(=O)OCC)cc4)c4ccc([nH]4)c(-c4ccc(S(=O)(=O)OCC)cc4)c4nc(c(-c5ccc(S(=O)(=O)OCC)cc5)c5ccc2[nH]5)C=C4)C=C3)cc1` ? > 100 µM

What TGI value was documented for this compound, `O=C(NCCNCCO)c1ccc(Nc2nc3ccccc3c3occc23)cc1` ? > 100 µM

What TGI value was documented for this compound, COC1/C(=C\C(C)=O)c2ccccc2N1C(C)=O (centres undefined) ? > 100 µM

====

Tested on: DU-145 prostate
Assay Info: NCI tumour cell line growth inhibition, 48 h; in the data active means GI50 below about 0.43 µM; inactive means the rest
# output must be one of active, inactive

1) CC1=C(C(=O)Nc2ccc(Cl)c(Cl)c2)C(c2cccc(Cl)c2)NC(=S)N1 (stereo not given)    inactive
2) O=C1NC(=NCCc2ccc(Br)cc2)S/C1=C\c1ccc2ncccc2c1    inactive
3) COc1ccc(-c2c(-c3ccc(C#N)c(F)c3)nc(N3CCC(N)CC3)n(C)c2=O)cc1F    inactive
4) C[C@]12CCC(=O)C[C@@H]1CC[C@@H]1[C@@H]2CC[C@]2(C)[C@@H](OC(=O)N(CCCl)N=O)CC[C@@H]12    active

Switching to the query record.
Lab log entry: COc1ccc2nc3ccccc3c(NCCNCC(C)O)c2c1 (stereo not given) — outcome as called in the assay? inactive

====

Tested on: NCI-H522 lung
Assay Info: NCI tumour cell line growth inhibition, 48 h
Measurement Type: TGI (µM)
The answer is to be given in µM; state only the numeric part.

1. COc1ccc2c(c1)C(=O)c1c-2n(CCCN(C)C)c(=O)c2cc([N+](=O)[O-])ccc12    0.898

What TGI value was documented for this compound, `CN1CCN(c2ccc(NC3=CC(=O)c4ncncc4C3=O)cc2)CC1` ? 1.72

What TGI value was documented for this compound, `CCc1c(C)c2cc(-n3c(-c4ccc(OC)cc4)csc3=N)c(O)c(C)c2oc1=O` ? 2.46

What TGI value was documented for this compound, `O=C1C(Cl)=C(NCCCN(CCCNC2=C(Cl)C(=O)c3ccccc3C2=O)C2=C(Cl)C(=O)c3ccccc3C2=O)C(=O)c2ccccc21` ? 4.98
